target: hCB1R (Homo sapiens); construct: expressed in transfected cells; host or cells: CHO cells stably expressing hCB1R; assay type: binding
Sequence (P21554 whole entry): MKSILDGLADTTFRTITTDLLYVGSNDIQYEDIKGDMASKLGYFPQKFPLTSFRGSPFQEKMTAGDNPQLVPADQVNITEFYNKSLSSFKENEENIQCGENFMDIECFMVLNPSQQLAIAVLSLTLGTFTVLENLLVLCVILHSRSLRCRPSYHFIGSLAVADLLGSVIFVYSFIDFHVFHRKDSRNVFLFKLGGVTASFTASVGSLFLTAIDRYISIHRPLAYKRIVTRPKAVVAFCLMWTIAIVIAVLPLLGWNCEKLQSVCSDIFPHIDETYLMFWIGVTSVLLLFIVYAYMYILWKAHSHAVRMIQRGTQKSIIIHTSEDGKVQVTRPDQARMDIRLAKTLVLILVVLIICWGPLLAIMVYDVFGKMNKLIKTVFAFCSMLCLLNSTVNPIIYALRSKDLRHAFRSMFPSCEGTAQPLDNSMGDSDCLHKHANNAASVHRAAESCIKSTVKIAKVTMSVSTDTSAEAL
quantityName: [^3H]CP 55,940 displ. @10 µM hCB1R

Consider the worked cases shown below.
| sampleSmiles | [^3H]CP 55,940 displ. @10 µM hCB1R |
| --- | --- |
| CCOc1ccc(Cc2nc3cc(C(=O)N(CC)CC)ccc3n2CCOCCOCCNc2c3c(nc4ccccc24)CCCC3)cc1 | 11% |
| CCOc1ccc(Cc2nc3cc(C(=O)N(CC)CC)ccc3n2CCCNc2c3c(nc4ccccc24)CCCC3)cc1 | 15% |
| CCOc1ccc(Cc2nc3cc(C(=O)NCCCCCNc4c5c(nc6ccccc46)CCCC5)ccc3n2CCC(C)C)cc1 | 15% |
| CCOc1ccc(Cc2nc3cc(C(=O)N(CC)CC)ccc3n2CCCCCCNc2c3c(nc4ccccc24)CCCC3)cc1 | 17% |

Could you now consider this next compound?
Form field: [^3H]CP 55,940 displ. @10 µM hCB1R recorded for `CCOc1ccc(Cc2nc3cc(C(=O)NCCSSCCNc4c5c(nc6ccccc46)CCCC5)ccc3n2CCC(C)C)cc1` with hCB1R (Homo sapiens) (enter value)
45%

###

biological target: hCB2R (Homo sapiens, UniProt P34972); construct: expressed in transfected cells; host or cells: HEK cells stably expressing hCB2R; assay: biochemical; format: binding
Sequence (P34972 whole entry): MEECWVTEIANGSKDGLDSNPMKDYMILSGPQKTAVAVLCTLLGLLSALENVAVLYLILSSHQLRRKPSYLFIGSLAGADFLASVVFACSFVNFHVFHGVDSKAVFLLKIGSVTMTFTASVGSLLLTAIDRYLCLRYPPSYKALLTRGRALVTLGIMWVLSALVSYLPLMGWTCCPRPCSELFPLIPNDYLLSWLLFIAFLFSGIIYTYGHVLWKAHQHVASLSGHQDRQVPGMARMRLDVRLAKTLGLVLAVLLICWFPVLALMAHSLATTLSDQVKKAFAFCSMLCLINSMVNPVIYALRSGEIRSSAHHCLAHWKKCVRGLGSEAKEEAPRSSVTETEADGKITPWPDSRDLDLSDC

| compound | affinity towards hCB2R (in words) |
| --- | --- |
| CCOc1ccc(Cc2nc3cc(C(=O)NCCOCCOCCNc4c5c(nc6ccccc46)CCCC5)ccc3n2CCC(C)C)cc1 [compound 7] | weaker affinity |
| CCOc1ccc(Cc2nc3cc(C(=O)N(CC)CC)ccc3n2CCOCCOCCNc2c3c(nc4ccccc24)CCCC3)cc1 [compound 6] | weaker affinity |

###

molecular target: hBChE (Homo sapiens); experiment: biochemical; assay type: biochemical
Sequence (P06276 29-602): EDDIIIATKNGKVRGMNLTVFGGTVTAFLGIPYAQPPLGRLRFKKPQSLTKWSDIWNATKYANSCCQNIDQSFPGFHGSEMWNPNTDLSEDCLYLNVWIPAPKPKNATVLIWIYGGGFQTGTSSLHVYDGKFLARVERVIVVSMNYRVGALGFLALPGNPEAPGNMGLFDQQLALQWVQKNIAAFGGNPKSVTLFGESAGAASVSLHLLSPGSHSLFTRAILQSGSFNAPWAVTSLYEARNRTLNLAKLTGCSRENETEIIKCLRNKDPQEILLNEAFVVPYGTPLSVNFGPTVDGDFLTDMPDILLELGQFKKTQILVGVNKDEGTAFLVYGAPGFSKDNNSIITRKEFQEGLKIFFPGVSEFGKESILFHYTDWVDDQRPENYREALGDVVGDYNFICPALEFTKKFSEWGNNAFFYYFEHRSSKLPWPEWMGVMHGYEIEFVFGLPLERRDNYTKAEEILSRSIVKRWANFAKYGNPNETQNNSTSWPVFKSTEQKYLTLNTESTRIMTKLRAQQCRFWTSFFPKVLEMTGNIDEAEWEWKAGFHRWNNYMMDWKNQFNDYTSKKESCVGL
quantityName: IC50 (nM)
Quick note: give the figure in nM, leave out the unit.

Form field: IC50 recorded for CCOc1ccc(Cc2nc3cc(C(=O)N(CC)CC)ccc3n2CCOCCOCCNc2c3c(nc4ccccc24)CCCC3)cc1 [compound 6] with hBChE (Homo sapiens) (enter value)
90

###

Listed here: items and their measured pIC50.
target: hAChE (Homo sapiens); test: biochemical; type: biochemical; conditions: hAChE recombinant expressed; read-out: IC50 AChE (hAChE)
Sequence (P22303 32-614): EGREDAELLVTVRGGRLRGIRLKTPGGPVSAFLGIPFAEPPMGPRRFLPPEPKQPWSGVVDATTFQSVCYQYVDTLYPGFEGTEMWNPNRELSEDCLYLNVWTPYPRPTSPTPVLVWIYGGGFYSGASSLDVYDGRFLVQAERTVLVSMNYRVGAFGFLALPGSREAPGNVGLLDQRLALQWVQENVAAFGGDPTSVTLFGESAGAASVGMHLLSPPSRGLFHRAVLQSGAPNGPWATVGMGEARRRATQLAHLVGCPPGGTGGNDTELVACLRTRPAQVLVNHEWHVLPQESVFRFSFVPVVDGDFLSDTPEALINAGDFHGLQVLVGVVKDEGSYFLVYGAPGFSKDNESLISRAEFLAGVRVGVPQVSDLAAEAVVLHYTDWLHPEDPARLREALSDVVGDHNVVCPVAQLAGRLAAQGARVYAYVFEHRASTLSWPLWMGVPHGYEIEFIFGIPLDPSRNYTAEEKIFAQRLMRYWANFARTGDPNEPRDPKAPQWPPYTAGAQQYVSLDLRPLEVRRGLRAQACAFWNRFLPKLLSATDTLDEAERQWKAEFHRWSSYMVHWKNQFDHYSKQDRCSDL
Here pIC50 is given on a logarithmic scale as minus log10 of the concentration in mol/L.

Consider the worked cases shown below.
| sampleSmiles | quantityName | experimentalResult |
| --- | --- | --- |
| CCOc1ccc(Cc2nc3cc(C(=O)N(CC)CC)ccc3n2CCCCCCNc2c3c(nc4ccccc24)CCCC3)cc1 | pIC50 | 7.06 |
| CCOc1ccc(Cc2nc3cc(C(=O)NCCSSCCNc4c5c(nc6ccccc46)CCCC5)ccc3n2CCC(C)C)cc1 | pIC50 | 7.87 |

Could you now consider this next compound?
Would you kindly share the measured pIC50 for `CCOc1ccc(Cc2nc3cc(C(=O)N(CC)CCCCNc4c5c(nc6ccccc46)CCCC5)ccc3n2CCC(C)C)cc1` ?
6.59

###

molecular target: hCB2R (Homo sapiens); construct: expressed in transfected cells; host or cells: HEK cells stably expressing hCB2R; assay: biochemical; type: binding; conditions: read-out: Ki hCB2R
quantityName: Ki
Mention the unit after the number when you answer.

Consider the worked cases shown below.
| sampleSmiles | subjectOfTest | Ki |
| --- | --- | --- |
| CCOc1ccc(Cc2nc3cc(C(=O)NCCCNc4c5c(nc6ccccc46)CCCC5)ccc3n2CCC(C)C)cc1 | hCB2R (Homo sapiens) | 5 µM |
| CCOc1ccc(Cc2nc3cc(C(=O)N(CC)CC)ccc3n2CCCCCNc2c3c(nc4ccccc24)CCCC3)cc1 | hCB2R (Homo sapiens) | 7.3 µM |
| CCOc1ccc(Cc2nc3cc(C(=O)NCCNc4c5c(nc6ccccc46)CCCC5)ccc3n2CCC(C)C)cc1 | hCB2R (Homo sapiens) | 2.5 µM |
| CCOc1ccc(Cc2nc3cc(C(=O)N(CC)CC)ccc3n2CCOCCOCCNc2c3c(nc4ccccc24)CCCC3)cc1 | hCB2R (Homo sapiens) | 28.7 µM |
| CCOc1ccc(Cc2nc3cc(C(=O)NCCCCNc4c5c(nc6ccccc46)CCCC5)ccc3n2CCC(C)C)cc1 | hCB2R (Homo sapiens) | 2.4 µM |

Form field: Ki recorded for `CCOc1ccc(Cc2nc3cc(C(=O)N(CC)CCCCNc4c5c(nc6ccccc46)CCCC5)ccc3n2CCC(C)C)cc1` with hCB2R (Homo sapiens) (enter value)
3 µM

Continue with `CCOc1ccc(Cc2nc3cc(C(=O)NCCCCCNc4c5c(nc6ccccc46)CCCC5)ccc3n2CCC(C)C)cc1`
4 µM

Continue with `CCOc1ccc(Cc2nc3cc(C(=O)NCCOCCOCCNc4c5c(nc6ccccc46)CCCC5)ccc3n2CCC(C)C)cc1`
17.4 µM

Continue with `CCOc1ccc(Cc2nc3cc(C(=O)NCCCCCCNc4c5c(nc6ccccc46)CCCC5)ccc3n2CCC(C)C)cc1`
9.6 µM

Continue with `CCOc1ccc(Cc2nc3cc(C(=O)N(CC)CC)ccc3n2CCCCNc2c3c(nc4ccccc24)CCCC3)cc1`
26.9 µM

Continue with `CCOc1ccc(Cc2nc3cc(C(=O)NCCSSCCNc4c5c(nc6ccccc46)CCCC5)ccc3n2CCC(C)C)cc1`
6.8 µM

###

biological target: eeAChE (Electrophorus electricus); test: biochemical; conditions: eeAChE from electric eel; read-out: IC50 AChE (eeAChE)
We label by threshold. Values of IC50 strictly beneath 50 nM are 1 (yes). Values of 50 nM and up are 0 (no).

| molecule | categoryLabel |
| --- | --- |
| CCOc1ccc(Cc2nc3cc(C(=O)NCCNc4c5c(nc6ccccc46)CCCC5)ccc3n2CCC(C)C)cc1 [4a] | 1 (yes) |

We next turn to a different molecule, shown below.
A record lists CCOc1ccc(Cc2nc3cc(C(=O)NCCCCCNc4c5c(nc6ccccc46)CCCC5)ccc3n2CCC(C)C)cc1 [4d] . Is its IC50 below 50 nM?
0 (no)

###

biological target: eeAChE (Electrophorus electricus, UniProt O42275); assay: biochemical; details: eeAChE from electric eel; read-out: IC50 AChE (eeAChE)
Sequence (O42275 24-633): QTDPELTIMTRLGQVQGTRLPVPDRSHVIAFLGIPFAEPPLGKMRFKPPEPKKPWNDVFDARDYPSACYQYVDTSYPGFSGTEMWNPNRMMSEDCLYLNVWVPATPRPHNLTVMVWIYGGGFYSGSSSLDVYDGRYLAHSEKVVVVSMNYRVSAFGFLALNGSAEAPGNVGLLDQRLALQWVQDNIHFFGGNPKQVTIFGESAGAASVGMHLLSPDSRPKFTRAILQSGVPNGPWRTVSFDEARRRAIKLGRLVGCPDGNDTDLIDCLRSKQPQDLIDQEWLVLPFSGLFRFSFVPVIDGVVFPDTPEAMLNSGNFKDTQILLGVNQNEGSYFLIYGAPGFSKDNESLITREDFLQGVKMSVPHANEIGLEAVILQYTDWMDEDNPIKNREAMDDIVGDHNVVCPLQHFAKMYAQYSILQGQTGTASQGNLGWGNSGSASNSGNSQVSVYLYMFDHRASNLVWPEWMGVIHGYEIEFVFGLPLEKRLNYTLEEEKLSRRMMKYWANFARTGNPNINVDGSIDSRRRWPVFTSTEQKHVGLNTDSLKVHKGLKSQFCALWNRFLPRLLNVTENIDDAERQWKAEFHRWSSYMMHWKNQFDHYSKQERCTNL
We label by threshold. Values of IC50 strictly beneath 100 nM are Satisfied. Values of 100 nM and up are Not satisfied.

| compound | categoryLabel |
| --- | --- |
| CCOc1ccc(Cc2nc3cc(C(=O)NCCCCCCNc4c5c(nc6ccccc46)CCCC5)ccc3n2CCC(C)C)cc1 [4e] | Satisfied |

A record lists CCOc1ccc(Cc2nc3cc(C(=O)N(CC)CC)ccc3n2CCCNc2c3c(nc4ccccc24)CCCC3)cc1 [3b] . Is its IC50 below 100 nM?
Not satisfied

Continue with CCOc1ccc(Cc2nc3cc(C(=O)N(CC)CC)ccc3n2CCCCCCNc2c3c(nc4ccccc24)CCCC3)cc1 [compound 3e]
Satisfied

Continue with CCOc1ccc(Cc2nc3cc(C(=O)N(CC)CC)ccc3n2CCCCNc2c3c(nc4ccccc24)CCCC3)cc1 [3c]
Not satisfied

###

target: eeAChE (Electrophorus electricus, UniProt O42275); test: biochemical; conditions: eeAChE from electric eel; read-out: IC50 AChE (eeAChE)
Listed here: items and their measured pIC50.
Here pIC50 is given on a logarithmic scale as minus log10 of the concentration in mol/L.

Consider the worked cases shown below.
| sampleSmiles | quantityName | experimentalResult |
| --- | --- | --- |
| CCOc1ccc(Cc2nc3cc(C(=O)NCCSSCCNc4c5c(nc6ccccc46)CCCC5)ccc3n2CCC(C)C)cc1 | pIC50 | 7.36 |
| CCOc1ccc(Cc2nc3cc(C(=O)NCCCNc4c5c(nc6ccccc46)CCCC5)ccc3n2CCC(C)C)cc1 | pIC50 | 8.49 |
| CCOc1ccc(Cc2nc3cc(C(=O)N(CC)CCCCNc4c5c(nc6ccccc46)CCCC5)ccc3n2CCC(C)C)cc1 | pIC50 | 6.43 |

Would you kindly share the measured pIC50 for `CCOc1ccc(Cc2nc3cc(C(=O)NCCCCNc4c5c(nc6ccccc46)CCCC5)ccc3n2CCC(C)C)cc1` ?
7.89
